Listed here: compounds with reported IC50 for dephosphorylated FGFR2 (Homo sapiens (Human), UniProt P21802).
VALUE_KIND: IC50 (nM)

compound_string=COc1cc(Nc2ccc3ncc(-c4c(C)nn(C5CCN(C(=O)C6(F)CN(C(=O)/C=C/CN(C)C)C6)CC5)c4C)nc3c2)cc(OC)c1 reported_measurement=38
compound_string=COc1cc(Nc2ccc3ncc(-c4cnn(C5CCN(C(=O)C6(F)CN(C(=O)/C=C/CN(C)C)C6)CC5)c4)nc3c2)cc(OC)c1 reported_measurement=6
compound_string=C=CC(=O)N1CC(C(=O)N2CCC(n3cc(-c4cnc5ccc(Nc6cc(OC)cc(OC)c6)cc5n4)cn3)CC2)C1 reported_measurement=3
